experimental-system: c-Src tyrosine kinase (Homo sapiens (Human), UniProt P12931)
Sequence (P12931 whole entry, looked up): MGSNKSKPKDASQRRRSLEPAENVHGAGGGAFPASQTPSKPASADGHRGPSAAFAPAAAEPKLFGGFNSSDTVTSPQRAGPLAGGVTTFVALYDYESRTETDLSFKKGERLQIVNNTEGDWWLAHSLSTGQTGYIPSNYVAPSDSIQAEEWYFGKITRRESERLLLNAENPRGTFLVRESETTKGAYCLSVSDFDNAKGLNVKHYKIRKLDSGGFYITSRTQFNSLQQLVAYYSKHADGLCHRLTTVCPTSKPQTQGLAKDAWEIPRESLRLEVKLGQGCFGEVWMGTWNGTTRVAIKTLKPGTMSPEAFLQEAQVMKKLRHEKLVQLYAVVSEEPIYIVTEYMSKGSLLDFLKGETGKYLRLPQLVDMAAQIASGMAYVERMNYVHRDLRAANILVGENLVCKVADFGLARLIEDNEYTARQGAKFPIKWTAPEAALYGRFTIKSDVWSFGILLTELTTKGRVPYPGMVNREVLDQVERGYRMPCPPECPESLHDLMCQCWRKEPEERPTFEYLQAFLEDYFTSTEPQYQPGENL
method: in vitro c-Src tyrosine kinase inhibition (32P-ATP, poly(D4Y)n substrate)
Format: biochemical
condition: 1 uM compound; read-out: % inhibition against c-Src
recorded-metric: inhibition at 1 µM

compound=Oc1cccc(Nc2ccnc3cc(-c4cccc(CN5CCNCC5)c4)sc23)c1 experimental_system="c-Src tyrosine kinase (Homo sapiens (Human), UniProt P12931)" experimental_value="> 80%"
compound=CCN(CC)Cc1ccc(-c2cc3ncnc(Nc4cccc(O)c4)c3s2)cc1 experimental_system="c-Src tyrosine kinase (Homo sapiens (Human), UniProt P12931)" experimental_value="> 80%"
compound="CC(CO)NC(=O)c1ccc(-c2cc3ncnc(Nc4cccc(O)c4)c3s2)cc1 (stereo not shown)" experimental_system="c-Src tyrosine kinase (Homo sapiens (Human), UniProt P12931)" experimental_value="> 30%"
compound=COc1cccc(Nc2ncnc3cc(-c4ccoc4)sc23)c1 experimental_system="c-Src tyrosine kinase (Homo sapiens (Human), UniProt P12931)" experimental_value="> 30%"
compound=COc1cccc(Nc2ncnc3cc(-c4ccco4)sc23)c1 experimental_system="c-Src tyrosine kinase (Homo sapiens (Human), UniProt P12931)" experimental_value="> 40%"
compound=COc1cccc(Nc2ncnc3cc(-c4ccc(OCCc5ccccc5)cc4)sc23)c1 experimental_system="c-Src tyrosine kinase (Homo sapiens (Human), UniProt P12931)" experimental_value="> 50%"
compound=Oc1cccc(Nc2ncnc3cc(-c4cc(CN5CCCCC5)cs4)sc23)c1 experimental_system="c-Src tyrosine kinase (Homo sapiens (Human), UniProt P12931)" experimental_value="> 50%"
compound=Oc1cccc(Nc2ncnc3cc(-c4ccc(CN5CCNCC5)cc4)sc23)c1 experimental_system="c-Src tyrosine kinase (Homo sapiens (Human), UniProt P12931)" experimental_value="> 60%"
compound=Oc1cccc(Nc2ccnc3cc(-c4ccc(CN5CCCCC5)cc4)sc23)c1 experimental_system="c-Src tyrosine kinase (Homo sapiens (Human), UniProt P12931)" experimental_value="> 30%"
compound=COc1ccc(-c2cc3ncnc(Nc4cccc(O)c4)c3s2)cc1 experimental_system="c-Src tyrosine kinase (Homo sapiens (Human), UniProt P12931)" experimental_value="> 60%"
compound=CCNCc1ccc(-c2cc3ncnc(Nc4cccc(O)c4)c3s2)o1 experimental_system="c-Src tyrosine kinase (Homo sapiens (Human), UniProt P12931)" experimental_value="> 70%"
compound=CN1CCN(Cc2ccc(-c3cc4ncnc(Nc5cccc(O)c5)c4s3)s2)CC1 experimental_system="c-Src tyrosine kinase (Homo sapiens (Human), UniProt P12931)" experimental_value="> 60%"
compound=Oc1cccc(Nc2ncnc3cc(-c4ccc(CN5CCCC5)o4)sc23)c1 experimental_system="c-Src tyrosine kinase (Homo sapiens (Human), UniProt P12931)" experimental_value="> 70%"
compound=COc1cccc(Nc2ncnc3cc(-c4ccc(O)cc4)sc23)c1 experimental_system="c-Src tyrosine kinase (Homo sapiens (Human), UniProt P12931)" experimental_value="> 70%"
compound=Oc1cccc(Nc2ncnc3cc(-c4ccc(Cl)cc4)sc23)c1 experimental_system="c-Src tyrosine kinase (Homo sapiens (Human), UniProt P12931)" experimental_value="> 60%"
compound=Oc1cccc(Nc2ncnc3cc(-c4ccc(CN5CCNCC5)o4)sc23)c1 experimental_system="c-Src tyrosine kinase (Homo sapiens (Human), UniProt P12931)" experimental_value="> 70%"
compound=CN1CCN(C(=O)Cc2ccc(-c3cc4ncnc(Nc5cccc(O)c5)c4s3)cc2)CC1 experimental_system="c-Src tyrosine kinase (Homo sapiens (Human), UniProt P12931)" experimental_value="> 30%"
compound="CC(NC(=O)c1ccc(-c2cc3ncnc(Nc4cccc(O)c4)c3s2)cc1)C(=O)O (stereo not shown)" experimental_system="c-Src tyrosine kinase (Homo sapiens (Human), UniProt P12931)" experimental_value="> 30%"
compound=Cl.Oc1cccc(Nc2ncnc3cc(-c4cccc(CCN5CCCC5)c4)sc23)c1 experimental_system="c-Src tyrosine kinase (Homo sapiens (Human), UniProt P12931)" experimental_value="> 80%"
compound=Oc1cccc(Nc2ncnc3cc(-c4ccc(CCN5CCOCC5)cc4)sc23)c1 experimental_system="c-Src tyrosine kinase (Homo sapiens (Human), UniProt P12931)" experimental_value="> 30%"
compound=COc1cccc(Nc2ncnc3cc(-c4ccc(OCCN5CCOCC5)cc4)sc23)c1 experimental_system="c-Src tyrosine kinase (Homo sapiens (Human), UniProt P12931)" experimental_value="> 70%"
compound=CN1CCN(C(=O)c2ccc(-c3cc4ncnc(Nc5cccc(O)c5)c4s3)cc2)CC1 experimental_system="c-Src tyrosine kinase (Homo sapiens (Human), UniProt P12931)" experimental_value="> 60%"
compound=CC1CCN(Cc2ccc(-c3cc4ncnc(Nc5cccc(O)c5)c4s3)cc2)CC1 experimental_system="c-Src tyrosine kinase (Homo sapiens (Human), UniProt P12931)" experimental_value="> 40%"
compound=CN1CCN(Cc2ccc(-c3cc4ncnc(Nc5cccc(O)c5)c4s3)cc2)CC1 experimental_system="c-Src tyrosine kinase (Homo sapiens (Human), UniProt P12931)" experimental_value="> 80%"
compound=Oc1cccc(Nc2ncnc3cc(-c4cc(CN5CCNCC5)cs4)sc23)c1 experimental_system="c-Src tyrosine kinase (Homo sapiens (Human), UniProt P12931)" experimental_value="> 50%"
compound=Oc1cccc(Nc2ncnc3cc(-c4ccoc4)sc23)c1 experimental_system="c-Src tyrosine kinase (Homo sapiens (Human), UniProt P12931)" experimental_value="> 50%"
compound=Oc1cccc(Nc2ncnc3cc(-c4ccc(CNC5CC5)cc4)sc23)c1 experimental_system="c-Src tyrosine kinase (Homo sapiens (Human), UniProt P12931)" experimental_value="> 80%"
compound=COc1cccc(Nc2ncnc3cc(-c4cccs4)sc23)c1 experimental_system="c-Src tyrosine kinase (Homo sapiens (Human), UniProt P12931)" experimental_value="> 40%"
